Values from paper PMC6631230

testedTarget: polyclonal mouse IgG (mouse)
testDescription: SPR; antibody immobilised by amine coupling on an HC200 chip (Reichert SR7500DC); peptides flowed in HBS-EP (pH 7.4, 0.01 M HEPES, 0.15 M NaCl, 3 mM EDTA, 0.005% Tween 20); multiple kinetics mode
pKd: −log10 of the molar value.
assayReadout: pKd

- binder: "GEPFSIP [IgG BP 3]"
  pKd: 4.70
- binder: "SHSGIFR [IgG BP 4]"
  pKd: 4.22

A = GRIHGPR [IgG BP 1]
B = GIHPFGR [IgG BP 2]
I'd appreciate it if you could identify which of A and B has the greater pKd. Mark your selection by writing its label. A
(A: 4.85, B: 4.30)
